# Tested on: Escherichia coli
# Applied conditions: Concentration 32 ug.mL-1; ASSAY_TEST Inhibition of Bacterial Growth; detection method Absorption (OD600); MEDIA CAMHB; plate type 384well; NBS; CORNING #3640; time 18 hr
# Description: Antibacterial activity against Escherichia coli ATCC 25922 (CO-ADD:GN_001); MIC in CAMBH media using NBS plates, by OD(600)
Results with a measured potency or affinity are listed apart.

Molecule | Assayed system | Inhibition / %
COc1ccc(C=C(C#N)C#N)cc1OC | Escherichia coli | 13.47
CCOC(=O)c1cn(Cc2ccccc2)c2ccccc12 | Escherichia coli | -2.16
C#CCN1CCc2nc3ncccc3c(N)c2C1.Cl | Escherichia coli | -15.24
C#CCN1CCc2nc3nc(OC)c(C#N)cc3c(N)c2C1 | Escherichia coli | -2.8
CCOC(=O)C1=C(C)NC(=O)CC1c1ccccc1 (stereo not drawn) | Escherichia coli | -3.27
NNC(=O)c1cccnc1 [NICOTINIC ACID HYDRAZIDE] | Escherichia coli | 15.76
NNCCCc1c[nH]c2ccccc12.O=C(O)/C=C/C(=O)O | Escherichia coli | 27.72
Cc1nc(N)c(C#N)cc1C(=O)O | Escherichia coli | -9.15
CN1CC=C(c2cccn2C)CC1.Cl | Escherichia coli | 19.65
N#CCC(=O)c1ccccc1 | Escherichia coli | 18.52
[N-]=[N+]=NCC(=O)c1ccc(Br)cc1 | Escherichia coli | 9.41
Cc1ccccc1C=C(C#N)C#N | Escherichia coli | 0.38
CCOC(=O)C1=C(C)OC(=O)CC1c1ccccc1 (stereo not drawn) | Escherichia coli | -9.36
